- TEST SUMMARY: Cell Viability - Hek293 (AID 427);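 also: cells exposed to compound for 40 hours at 37 °C before reading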
- MEASUREMENT CONDITIONS: qHTS
- Source text: NIH Chemical Genomics Center [NCGC] NIH Molecular Libraries Screening Centers Network [MLSCN] National Institutes of Environmental Health Sciences [NIEHS] National Toxicology Program [NTP] We have developed a 1536-well cell-based assay for quantitative high throughput screening (qHTS) against a number of cell lines to determine in vitro cytotoxicity of small molecules. […] 8. Detection; Luminescence; Viewlux plate reader […]
Records with an inconclusive call do not appear. Calls of active or inactive are those of the source.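 The calls were made as follows: active = compounds whose dose-response curve shows a full or clear partial loss of cell viability, called from curve shape rather than a numeric limit; inconclusive = weak partial curves or an effect only at the top dose; inactive = no dose-dependent loss of viability.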
Outcomes: y = active, n = inactive

SUBSTANCE SMILES: Nc1ccc(O)c([N+](=O)[O-])c1
QUALITATIVE LABEL: n

SUBSTANCE SMILES: S=c1[nH]c2ccccc2s1
QUALITATIVE LABEL: n

SUBSTANCE SMILES: c1cnc2c(c1)ccc1cccnc12
QUALITATIVE LABEL: y

SUBSTANCE SMILES: CN1CCC[C@H]1c1cccnc1
QUALITATIVE LABEL: n

SUBSTANCE SMILES: CN(C)c1ccc(N=NS(=O)(=O)O)cc1
QUALITATIVE LABEL: n

SUBSTANCE SMILES: Nc1ccc([N+](=O)[O-])cc1O
QUALITATIVE LABEL: n

---

- TGT: Cytochrome P450 2C19 (Homo sapiens)
- TEST SUMMARY: qHTS Assay for Inhibitors and Substrates of Cytochrome P450 2C19 (AID 899); also: nearly all actives have a fitted effect of over 60% in size
- MEASUREMENT CONDITIONS: recombinant CYP2C19, luciferin-H EGE luminescence; series mostly up to 57.1 µM
Records with an inconclusive call do not appear. Activity calls are given as the source filed them. Calls follow the shape of the dose curve; as a rule, active = well fitted inhibition curve with a large enough effect; inconclusive = small, poorly fitted or top-dose-only effect; inactive = no such curve, though single readings can be large or run the other way.
Classes used: 1 (yes) (active), 0 (no) (inactive)

SUBSTANCE SMILES: O=C(O)c1cc([N+](=O)[O-])ccc1NCCCc1ccccc1
TGT: Cytochrome P450 2C19 (Homo sapiens)
QUALITATIVE LABEL: 0 (no)
--
SUBSTANCE SMILES: CC(=O)SCC[N+](C)(C)C
TGT: Cytochrome P450 2C19 (Homo sapiens)
QUALITATIVE LABEL: 0 (no)
--
SUBSTANCE SMILES: Clc1ccccc1-c1nc(-c2ccncc2)no1
TGT: Cytochrome P450 2C19 (Homo sapiens)
QUALITATIVE LABEL: 1 (yes)

---

- TEST SUMMARY: qHTS for Activators of Parkin Expression: LOPAC Validation Assay (FLuc Reporter) (AID 720573;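 as to activation: 0% = DMSO and 100% = positive control compounds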)
- MEASUREMENT CONDITIONS: Cell line, PRKN promoter firefly luciferase reporter; series mostly up to 46.1 µM
Inconclusive results are not listed. Active and inactive are the calls of the source. Calls follow the shape of the dose curve; as a rule, active = well fitted activation curve with a large enough effect; inconclusive = small, poorly fitted or top-dose-only effect; inactive = no such curve, though single readings can be large or run the other way.
Possible outcomes: yes (1) for active, no (0) for inactive

COMPOUND: COc1cccc(C(=O)NCCN2CCN(c3ccc(Cl)cc3)CC2)c1
QUALITATIVE LABEL: no (0)
--
COMPOUND: NC[C@@H]1O[C@H](C23CC4CC(CC(C4)C2)C3)Cc2c1ccc(O)c2O
QUALITATIVE LABEL: no (0)
--
COMPOUND: COc1ccc(/C=C/C(=O)Nc2ccccc2C(=O)O)cc1OC
QUALITATIVE LABEL: no (0)
--
COMPOUND: NCC1OC(O[C@H]2[C@H](O)[C@@H](OC3C(O)C(N)CC(N)C3OC3OC(CO)C(O)C(O)C3N)O[C@@H]2CO)C(N)C(O)C1O (stereo partly drawn)
QUALITATIVE LABEL: no (0)
--
COMPOUND: C#C[C@]1(O)CC[C@H]2[C@@H]3CCC4=Cc5oncc5CC4(C)[C@H]3CCC21C (stereo partly drawn)
QUALITATIVE LABEL: no (0)
--
COMPOUND: CC12C(=O)OC(=O)C1(C)C1CCC2O1 (stereo not drawn)
QUALITATIVE LABEL: no (0)
--
COMPOUND: Cc1ccc(S(=O)(=O)/C=C/C#N)cc1
QUALITATIVE LABEL: no (0)
--
COMPOUND: CNC(=O)[C@H]1O[C@@H](n2cnc3c(NCc4cccc(I)c4)ncnc32)[C@H](O)[C@@H]1O
QUALITATIVE LABEL: no (0)
--
COMPOUND: O=C(O)[C@@H]1C[C@@H](C(=O)O)N1
QUALITATIVE LABEL: no (0)
--
COMPOUND: CCCCCCCCCCCCCCCCCC(=O)OC(CC(=O)O)C[N+](C)(C)C (stereo not drawn)
QUALITATIVE LABEL: no (0)
--
COMPOUND: COc1ccc(NC(=O)/C=C/c2ccc(Cl)cc2)cc1
QUALITATIVE LABEL: yes (1)
--
COMPOUND: Oc1ccc(C2CNCc3sccc32)cc1O (stereo not drawn)
QUALITATIVE LABEL: no (0)
--
COMPOUND: CC(C)NCC(O)COc1cccc2ccccc12 (stereo not drawn)
QUALITATIVE LABEL: no (0)
--
COMPOUND: OCC1O[C@H](O)C(Cl)C(O)C1O (stereo partly drawn)
QUALITATIVE LABEL: no (0)
--
COMPOUND: Nc1nc(Nc2ccccc2)nc2c1ncn2[C@@H]1O[C@H](CO)[C@@H](O)[C@H]1O
QUALITATIVE LABEL: no (0)
--
COMPOUND: Nc1nc(SCc2ccc([N+](=O)[O-])cc2)c2ncn([C@@H]3O[C@H](CO)[C@@H](O)[C@H]3O)c2n1
QUALITATIVE LABEL: no (0)
--
COMPOUND: CN1CCc2ccccc2Cc2[nH]c3ccccc3c2CC1
QUALITATIVE LABEL: no (0)
--
COMPOUND: CC(C)(C)c1ccc(S(=O)(=O)/C=C/C#N)cc1
QUALITATIVE LABEL: no (0)

---

- TEST SUMMARY: qHTS of pediatric cancer cell lines to identify multiple opportunities for drug repurposing: Primary screen for NB-EBc1 cells (AID 1347095)
- MEASUREMENT CONDITIONS: NB-EBc1 neuroblastoma viability, CellTiter-Glo luminescence, 48 h; series mostly up to 46 µM
Inconclusive results are not listed. Calls of active or inactive are those of the source. Calls follow the shape of the dose curve; as a rule, active = well fitted cell-killing curve with a large enough effect; inconclusive = small, poorly fitted or top-dose-only effect; inactive = no such curve, though single readings can be large or run the other way.
Possible outcomes: active, inactive

MOLECULE: CN(C)[C@@H]1C(=O)C(C(=O)NCN2CCCC2)=C(O)[C@@]2(O)C(=O)C3=C(O)c4c(O)cccc4[C@@](C)(O)C3C[C@@H]12 (some centres undefined)
QUALITATIVE LABEL: inactive
//
MOLECULE: CC(C(=O)O)c1ccc2c(c1)[nH]c1ccc(Cl)cc12 (centres undefined)
QUALITATIVE LABEL: inactive
//
MOLECULE: COc1cccc2c1C(=O)c1c(O)c3c(c(O)c1C2=O)C[C@@](O)(C(=O)CO)C[C@@H]3O[C@H]1C[C@H](N)[C@H](O[C@@H]2CCCCO2)[C@H](C)O1
QUALITATIVE LABEL: active
//
MOLECULE: CC(C(=O)O)c1ccc(C(=O)c2ccccc2)s1 (centres undefined)
QUALITATIVE LABEL: inactive

---

- TGT: ATPase family AAA domain-containing protein 5 (Homo sapiens) (UniProt Q96QE3)
- Sequence (Q96QE3 whole entry, looked up, the tested form may be a part): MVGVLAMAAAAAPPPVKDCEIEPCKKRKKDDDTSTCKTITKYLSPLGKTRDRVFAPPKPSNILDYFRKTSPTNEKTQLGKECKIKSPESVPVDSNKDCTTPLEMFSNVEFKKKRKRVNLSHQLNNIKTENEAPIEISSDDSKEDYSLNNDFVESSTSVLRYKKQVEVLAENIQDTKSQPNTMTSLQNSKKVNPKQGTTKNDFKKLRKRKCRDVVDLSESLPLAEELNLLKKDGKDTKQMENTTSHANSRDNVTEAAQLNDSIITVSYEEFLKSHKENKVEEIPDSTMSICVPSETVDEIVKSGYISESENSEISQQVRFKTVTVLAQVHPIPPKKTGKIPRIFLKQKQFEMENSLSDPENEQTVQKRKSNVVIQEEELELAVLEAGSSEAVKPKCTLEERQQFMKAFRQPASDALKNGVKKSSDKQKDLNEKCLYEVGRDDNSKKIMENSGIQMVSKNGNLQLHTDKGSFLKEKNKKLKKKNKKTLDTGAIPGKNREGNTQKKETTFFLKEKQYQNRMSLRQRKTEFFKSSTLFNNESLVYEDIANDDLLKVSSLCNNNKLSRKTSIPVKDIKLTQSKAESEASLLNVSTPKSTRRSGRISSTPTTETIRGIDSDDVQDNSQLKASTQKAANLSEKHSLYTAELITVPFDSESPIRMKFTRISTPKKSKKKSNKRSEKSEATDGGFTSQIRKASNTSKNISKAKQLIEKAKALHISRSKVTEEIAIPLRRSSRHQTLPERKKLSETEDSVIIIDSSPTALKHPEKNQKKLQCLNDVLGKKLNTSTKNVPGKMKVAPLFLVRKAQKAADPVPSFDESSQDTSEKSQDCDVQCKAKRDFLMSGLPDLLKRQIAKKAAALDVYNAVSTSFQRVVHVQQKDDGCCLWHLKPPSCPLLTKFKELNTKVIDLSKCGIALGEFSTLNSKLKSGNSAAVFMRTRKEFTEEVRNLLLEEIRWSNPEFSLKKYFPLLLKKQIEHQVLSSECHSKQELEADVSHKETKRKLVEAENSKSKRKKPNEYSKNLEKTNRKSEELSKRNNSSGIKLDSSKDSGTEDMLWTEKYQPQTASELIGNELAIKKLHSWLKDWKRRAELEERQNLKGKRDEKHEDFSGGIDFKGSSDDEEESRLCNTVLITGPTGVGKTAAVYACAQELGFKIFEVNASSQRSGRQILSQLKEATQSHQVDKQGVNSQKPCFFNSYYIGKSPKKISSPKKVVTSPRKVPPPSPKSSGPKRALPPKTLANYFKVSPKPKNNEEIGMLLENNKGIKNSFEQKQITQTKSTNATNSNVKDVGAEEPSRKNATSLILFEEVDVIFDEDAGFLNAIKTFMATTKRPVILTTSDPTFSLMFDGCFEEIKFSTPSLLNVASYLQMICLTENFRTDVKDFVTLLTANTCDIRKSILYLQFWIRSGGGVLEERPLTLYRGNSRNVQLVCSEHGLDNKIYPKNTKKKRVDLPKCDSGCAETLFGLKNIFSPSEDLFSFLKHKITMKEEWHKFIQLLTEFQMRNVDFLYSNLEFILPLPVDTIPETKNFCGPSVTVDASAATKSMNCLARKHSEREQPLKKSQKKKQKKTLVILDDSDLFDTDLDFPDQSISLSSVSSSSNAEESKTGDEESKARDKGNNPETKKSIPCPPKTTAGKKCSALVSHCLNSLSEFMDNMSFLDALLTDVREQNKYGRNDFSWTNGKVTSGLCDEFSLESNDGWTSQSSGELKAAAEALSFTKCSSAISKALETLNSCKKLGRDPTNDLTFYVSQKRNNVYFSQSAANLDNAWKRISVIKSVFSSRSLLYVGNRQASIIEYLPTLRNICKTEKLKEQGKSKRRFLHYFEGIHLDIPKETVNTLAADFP
- TEST SUMMARY: Validation screen for small molecules that inhibit ELG1-dependent DNA repair in human embryonic kidney (HEK293T) cells expressing luciferase-tagged ELG1 (AID 493107); also: nearly all actives have a fitted effect of over 70% in size
- MEASUREMENT CONDITIONS: HEK293T ELG1-luciferase level, luminescence, 5-fluorouridine co-treatment, 16 h; series mostly up to 46.1 µM
Results filed as inconclusive are left out. The source made the active and inactive calls. Calls come from the whole dose curve; as a rule, active = well fitted inhibition curve with a large enough effect; inconclusive = small, poorly fitted or top-dose-only effect, or effect the other way; inactive = flat fitted curve, though single readings scatter.
Outcome codes: class 1 for active, class 0 for inactive

COMPOUND: OCC1O[C@H]([S-])[C@H](O)[C@@H](O)[C@@H]1O.[Au+] (stereo partly specified)
QUALITATIVE LABEL: class 0
//
COMPOUND: NC(=O)C(=O)O
QUALITATIVE LABEL: class 0
//
COMPOUND: C[N+]1(C)C2CC(OC(=O)[C@H](CO)c3ccccc3)CC1C1OC12 (stereo partly specified)
QUALITATIVE LABEL: class 0
//
COMPOUND: NCCCS(=O)(=O)O
QUALITATIVE LABEL: class 0
//
COMPOUND: Oc1ccc(C2CNCc3sccc32)cc1O (stereo unspecified)
QUALITATIVE LABEL: class 0
//
COMPOUND: O=C(Nc1cccc(C(=O)Nc2ccc(S(=O)(=O)O)c3cc(S(=O)(=O)O)cc(S(=O)(=O)O)c23)c1)Nc1cccc(C(=O)Nc2ccc(S(=O)(=O)O)c3cc(S(=O)(=O)O)cc(S(=O)(=O)O)c23)c1
QUALITATIVE LABEL: class 0
//
COMPOUND: Clc1ccc(N2CCN(Cc3cc4ccccn4n3)CC2)cc1
QUALITATIVE LABEL: class 0
//
COMPOUND: Cc1cc(NC2CCCCC2)nc(-n2nc(C)cc2C)n1
QUALITATIVE LABEL: class 1
//
COMPOUND: N=C(N)SCCc1ccc(CCSC(=N)N)cc1
QUALITATIVE LABEL: class 0
//
COMPOUND: CNCC[C@H](Oc1ccc(C(F)(F)F)cc1)c1ccccc1
QUALITATIVE LABEL: class 0
//
COMPOUND: O=C(O)CCCC[C@@H]1CCSS1
QUALITATIVE LABEL: class 0
//
COMPOUND: O=C(O)CC[C@@H](C(=O)O)N1C(=O)c2ccccc2C1=O
QUALITATIVE LABEL: class 0
//
COMPOUND: N[C@@H](CC(=O)O)C(=O)O
QUALITATIVE LABEL: class 0
//
COMPOUND: O=P(O)(O)C(Cl)(Cl)P(=O)(O)O
QUALITATIVE LABEL: class 0
//
COMPOUND: OCC1O[C@H](O)C(Cl)C(O)C1O (stereo partly specified)
QUALITATIVE LABEL: class 0
//
COMPOUND: CC(C)CC(NP(=O)(O)O[C@@H]1O[C@@H](C)[C@H](O)[C@@H](O)[C@H]1O)C(=O)NC(Cc1c[nH]c2ccccc12)C(=O)O (stereo partly specified)
QUALITATIVE LABEL: class 0
